Conditions: in DMF, 288.15 K
measuredParameter: solubility (mole fraction)

>>> print(df.to_string())
                          compoundstructure  endpointresult
0  C[C@]12CCC3=C4CCC(=O)C=C4CC[C@H]3[C@@H]1CC[C@@]2(O)CC#N          0.0303

---

Conditions: in water, 273.15 K
measuredParameter: solubility (mole fraction)

>>> df
                          compoundstructure           measuredparameter  endpointresult
0  C[C@]12CCC3=C4CCC(=O)C=C4CC[C@H]3[C@@H]1CC[C@@]2(O)CC#N  solubility (mole fraction)        5.99e-06
